Assay: Phase I DDI study Part 1: tazemetostat plasma PK alone and with itraconazole (noncompartmental analysis)
Format: in vivo, human
Conditions: human, plasma, oral, Part 1; tazemetostat 400 mg multiple dosing with itraconazole 200 mg once daily, Day 36; plasma; read-out: AUC0‐12 h, mean (SD)
MEASURED ATTRIBUTE: AUC (ng·h/mL)

CCN(c1cc(-c2ccc(CN3CCOCC3)cc2)cc(C(=O)NCc2c(C)cc(C)[nH]c2=O)c1C)C1CCOCC1 : 5160

----------
Test: Phase I DDI study Part 2: tazemetostat plasma PK alone and with rifampin (noncompartmental analysis)
Assay type: in vivo, human
Settings: human, plasma, po, 800 mg, Part 2; tazemetostat 800 mg oral single dose alone, Day 1; plasma; read-out: Cmax, GeoMean (CV%)
MEASURED ATTRIBUTE: Cmax (ng/mL)

CCN(c1cc(-c2ccc(CN3CCOCC3)cc2)cc(C(=O)NCc2c(C)cc(C)[nH]c2=O)c1C)C1CCOCC1 : 1330

----------
Experiment: Phase I DDI study Part 2: tazemetostat plasma PK alone and with rifampin (noncompartmental analysis)
Assay type: in vivo, human
Conditions: human, plasma, po, 800 mg, Part 2; tazemetostat 800 mg oral single dose alone, Day 1; plasma; read-out: AUC0‐12 h, mean (SD)
MEASURED ATTRIBUTE: AUC (ng·h/mL)

CCN(c1cc(-c2ccc(CN3CCOCC3)cc2)cc(C(=O)NCc2c(C)cc(C)[nH]c2=O)c1C)C1CCOCC1 [Tazemetostat] : 5310

----------
Assay: Phase I DDI study Part 2: tazemetostat plasma PK alone and with rifampin (noncompartmental analysis)
Type: in vivo, human
Conditions: human, plasma, po, 800 mg, Part 2; tazemetostat 800 mg oral single dose alone, Day 1; plasma; read-out: t1/2, GeoMean (CV%) (converted)
MEASURED ATTRIBUTE: half-life (h)

CCN(c1cc(-c2ccc(CN3CCOCC3)cc2)cc(C(=O)NCc2c(C)cc(C)[nH]c2=O)c1C)C1CCOCC1 : 6.22

----------
Assay: Phase I DDI study Part 1: tazemetostat plasma PK alone and with itraconazole (noncompartmental analysis)
Assay type: in vivo, human
Details: human, plasma, oral, 400 mg, Part 1; tazemetostat 400 mg twice daily alone, multiple dosing, Day 15; plasma; read-out: AUC0‐12 h, GeoMean (CV%)
MEASURED ATTRIBUTE: AUC (ng·h/mL)

CCN(c1cc(-c2ccc(CN3CCOCC3)cc2)cc(C(=O)NCc2c(C)cc(C)[nH]c2=O)c1C)C1CCOCC1 [Tazemetostat] : 1830

----------
Test: Phase I DDI study Part 2: tazemetostat plasma PK alone and with rifampin (noncompartmental analysis)
Format: in vivo, human
Details: human, plasma, oral, Part 2; tazemetostat 800 mg multiple dosing with rifampin 600 mg once daily, Day 24; plasma; read-out: Cmax, GeoMean (CV%)
Excerpt: This was a Phase I, multicenter, open‐label, 2‐part study encompassing a fixed‐sequence design that aimed to characterize the PK of tazemetostat when administered as single and twice‐daily oral doses alone or in combination with either itraconazole (Part 1) or rifampin (Part 2). Secondary objectives were to evaluate the safety profile of tazemetostat when coadministered with either itraconazole (Part 1) or rifampin (Part 2). Part 2 of the study evaluated the DDI between tazemetostat and rifampin. […]
MEASURED ATTRIBUTE: Cmax

CCN(c1cc(-c2ccc(CN3CCOCC3)cc2)cc(C(=O)NCc2c(C)cc(C)[nH]c2=O)c1C)C1CCOCC1 : 181 ng/mL
